test system: CD8+ T-cells; type: cell-based, human
EXPERIMENTAL READOUT: No. with pentamer + cluster

Example cases with answers are listed next.
SLTPQAFEFV [GPC3 136-145, peptide and HLA-A2.1 pentamer loaded with it] : 4 (50)
GILGFTFVL [Flu matrix, reference compound] : 5 (56)
ELFDSLFPV [GPC3 169-178, peptide and HLA-A2.1 pentamer loaded with it] : 5 (63)
CINGVCWTV [NS3 1073, reference compound] : 2 (29)
LMLGEFLKL [SurlM2, reference compound] : 1 (11)
RLQPGLKWV [GPC3 44-52, peptide and HLA-A2.1 pentamer loaded with it] : 3 (33)

Request - read-out No. with pentamer + cluster | tested on CD8+ T-cells | sequence KLLTSMAISV [GPC3 563-572, peptide and HLA-A2.1 pentamer loaded with it]
4 (44)

For the record FEFVGEFFTD [GPC3 142-151, peptide and HLA-A2.1 pentamer loaded with it] , what value of No. with pentamer + cluster is listed for CD8+ T-cells?
2 (22)

Values were extracted from patent US20130217122A1.
